Reference for the values: patent US6204293A

# systemUnderTest: Rat brain protein farnesyltransferase (Rattus norvegicus, UniProt Q02293+Q04631)
# Construct: Rat brain protein farnesyltransferase activity is measured; from tissue; host or cells: rat brain
# measurementNotes: % inhibition of farnesylation, scintillation proximity assay with biotin-K Ras B fragment
# Format: biochemical
# experimentalContext: read-out: % inhibition at 1 × 10^-7 M; Table 3; 1 × 10^-7 M
Where a name gives a salt, the structure may show the parent alone.
# cutoff 90% applies to inhibition at 0.1 µM; >= gives criterion met, < gives criterion not met

compound: COc1ncc(COCc2ccc(C(=O)N[C@@H](CCSC)C(=O)O)c(-c3ccccc3C)c2)s1 [Example 896, lithium salt]
systemUnderTest: Rat brain protein farnesyltransferase (Rattus norvegicus, UniProt Q02293+Q04631)
labelClass: criterion met

compound: CSCC[C@H](NC(=O)c1ccc(CSC2=NCCS2)cc1-c1ccccc1C)C(=O)O
systemUnderTest: Rat brain protein farnesyltransferase (Rattus norvegicus, UniProt Q02293+Q04631)
labelClass: criterion met

compound: CSCC[C@H](NC(=O)c1ccc(COCC2CCC(c3ccc(Cl)cc3)O2)cc1-c1ccccc1C)C(=O)O (stereo partly drawn) [Example 822, lithium salt]
systemUnderTest: Rat brain protein farnesyltransferase (Rattus norvegicus, UniProt Q02293+Q04631)
labelClass: criterion met

compound: CSCC[C@H](NC(=O)c1ccc(CSc2ncnc3[nH]ncc23)cc1-c1ccccc1C)C(=O)O
systemUnderTest: Rat brain protein farnesyltransferase (Rattus norvegicus, UniProt Q02293+Q04631)
labelClass: criterion not met

compound: CSCC[C@H](NC(=O)c1ccc(COCc2cnc(-c3ccc(F)cc3)s2)cc1-c1ccccc1C)C(=O)O [Example 900, lithium salt]
systemUnderTest: Rat brain protein farnesyltransferase (Rattus norvegicus, UniProt Q02293+Q04631)
labelClass: criterion met

compound: CSCC[C@H](NC(=O)c1ccc(CSc2nnc[nH]2)cc1-c1ccccc1C)C(=O)O
systemUnderTest: Rat brain protein farnesyltransferase (Rattus norvegicus, UniProt Q02293+Q04631)
labelClass: criterion met

compound: CSCC[C@H](NC(=O)c1ccc(CSc2ccc3ccccc3c2)cc1-c1ccccc1C)C(=O)O
systemUnderTest: Rat brain protein farnesyltransferase (Rattus norvegicus, UniProt Q02293+Q04631)
labelClass: criterion met

compound: CSCC[C@H](NC(=O)c1ccc(CSc2nc3ccccc3c(=O)[nH]2)cc1-c1ccccc1C)C(=O)O
systemUnderTest: Rat brain protein farnesyltransferase (Rattus norvegicus, UniProt Q02293+Q04631)
labelClass: criterion met

compound: CSCC[C@H](NC(=O)c1ccc(COc2ccc3ccccc3c2)cc1-c1ccccc1C)C(=O)O
systemUnderTest: Rat brain protein farnesyltransferase (Rattus norvegicus, UniProt Q02293+Q04631)
labelClass: criterion not met

compound: C=C(C)C1CC=C(COCc2ccc(C(=O)N[C@@H](CCSC)C(=O)O)c(-c3ccccc3C)c2)CC1 (stereo partly drawn) [Example 521, lithium salt]
systemUnderTest: Rat brain protein farnesyltransferase (Rattus norvegicus, UniProt Q02293+Q04631)
labelClass: criterion met

compound: CSCC[C@H](NC(=O)c1ccc(COc2cccc3ccccc23)cc1-c1ccccc1C)C(=O)O
systemUnderTest: Rat brain protein farnesyltransferase (Rattus norvegicus, UniProt Q02293+Q04631)
labelClass: criterion not met

compound: CSCC[C@H](NC(=O)c1ccc(CSc2nc(C)cc(C)n2)cc1-c1ccccc1C)C(=O)O
systemUnderTest: Rat brain protein farnesyltransferase (Rattus norvegicus, UniProt Q02293+Q04631)
labelClass: criterion not met

compound: CSCC[C@H](NC(=O)c1ccc(CSc2nnc(N)s2)cc1-c1ccccc1C)C(=O)O
systemUnderTest: Rat brain protein farnesyltransferase (Rattus norvegicus, UniProt Q02293+Q04631)
labelClass: criterion not met

compound: CSCC[C@H](NC(=O)c1ccc(CSc2ccc(F)cc2)cc1-c1ccccc1C)C(=O)O
systemUnderTest: Rat brain protein farnesyltransferase (Rattus norvegicus, UniProt Q02293+Q04631)
labelClass: criterion met

compound: CSCC[C@H](NC(=O)c1ccc(COCc2ccccc2)cc1-c1ccccc1C)C(=O)NS(=O)(=O)c1ccc(Cl)cc1
systemUnderTest: Rat brain protein farnesyltransferase (Rattus norvegicus, UniProt Q02293+Q04631)
labelClass: criterion met

compound: CSCC[C@H](NC(=O)c1ccc(CSc2nc3cc(C)ccc3[nH]2)cc1-c1ccccc1C)C(=O)O
systemUnderTest: Rat brain protein farnesyltransferase (Rattus norvegicus, UniProt Q02293+Q04631)
labelClass: criterion not met

compound: CSCC[C@H](NC(=O)c1ccc(COCc2ccc(-c3ccc(Cl)cc3)o2)cc1-c1ccccc1C)C(=O)NS(C)(=O)=O
systemUnderTest: Rat brain protein farnesyltransferase (Rattus norvegicus, UniProt Q02293+Q04631)
labelClass: criterion not met

compound: CSCC[C@H](NC(=O)c1ccc(COCc2ccc(-c3ccc(F)c(Cl)c3)o2)cc1-c1ccccc1C)C(=O)O [Example 450, lithium salt]
systemUnderTest: Rat brain protein farnesyltransferase (Rattus norvegicus, UniProt Q02293+Q04631)
labelClass: criterion met

compound: CSCC[C@H](NC(=O)c1ccc(CSc2ccccc2C(C)C)cc1-c1ccccc1C)C(=O)O
systemUnderTest: Rat brain protein farnesyltransferase (Rattus norvegicus, UniProt Q02293+Q04631)
labelClass: criterion not met

compound: CSCC[C@H](NC(=O)c1ccc(CSc2nc3ccccc3[nH]2)cc1-c1ccccc1C)C(=O)O
systemUnderTest: Rat brain protein farnesyltransferase (Rattus norvegicus, UniProt Q02293+Q04631)
labelClass: criterion not met

compound: CSCC[C@H](NC(=O)c1ccc(COCc2ccc(-c3ccc(Cl)cc3)o2)cc1-c1ccccc1C)C(=O)O [Example 443, lithium salt]
systemUnderTest: Rat brain protein farnesyltransferase (Rattus norvegicus, UniProt Q02293+Q04631)
labelClass: criterion met

compound: CSCC[C@H](NC(=O)c1ccc(CSc2ncnc3[nH]cnc23)cc1-c1ccccc1C)C(=O)O
systemUnderTest: Rat brain protein farnesyltransferase (Rattus norvegicus, UniProt Q02293+Q04631)
labelClass: criterion not met

compound: CSCC[C@H](NC(=O)c1ccc(COCCCCC2CCCCC2)cc1-c1ccccc1C)C(=O)O
systemUnderTest: Rat brain protein farnesyltransferase (Rattus norvegicus, UniProt Q02293+Q04631)
labelClass: criterion met

compound: COc1ccc(CSCc2ccc(C(=O)N[C@@H](CCSC)C(=O)O)c(-c3ccccc3C)c2)cc1 [Example 558, lithium salt]
systemUnderTest: Rat brain protein farnesyltransferase (Rattus norvegicus, UniProt Q02293+Q04631)
labelClass: criterion not met
